These entries and their values trace back to patent US20090306150A1.

Test: Determining the bulk density of flupirtine salts
Type: physicochemical
Conditions: volume per 100.0 g of sample material, about 4 g in 10 ml measuring cylinder, not compacted
Observable: Bulk density (ml/100 g substance)
# output: numeric value plus its unit

get_value(item= CCOC(=O)Nc1ccc(NCc2ccc(F)cc2)nc1N.O=C(O)/C=C\C(=O)O [Flupirtine maleate B, Flupirtine Maleate Form B, reference compound] , readout=Bulk density (ml/100 g substance)) returns 1634 ml/100 g substance

get_value(item= CC(=O)O.CCOC(=O)Nc1ccc(NCc2ccc(F)cc2)nc1N [Flupirtine acetate] , readout=Bulk density (ml/100 g substance)) returns 330 ml/100 g substance

get_value(item= CCOC(=O)Nc1ccc(NCc2ccc(F)cc2)nc1N [Flupirtine propionate] , readout=Bulk density (ml/100 g substance)) returns 306 ml/100 g substance

get_value(item= CCOC(=O)Nc1ccc(NCc2ccc(F)cc2)nc1N.O=C(O)/C=C\C(=O)O [Flupirtine maleate A, Flupirtine Maleate Form A, reference compound] , readout=Bulk density (ml/100 g substance)) returns 686 ml/100 g substance
